Provide the reported % Insulin Activity (in vitro; assay not stated) of each item.
- TARGET: human IGF-1 receptor (human, UniProt P08069 31-1367)
- ASSAY METHOD TEXT: cell-based or functional assay
Bridges are numbered along the chain shown (N, C = ends). Where no end group is shown, it is not given here.
Response body: numeric value in %, unit text excluded.

Query :: What measured % Insulin Activity (in vitro; assay not stated) goes with MIU-58: B1-PEG20K-B1- Dimer (ligand, disulfide 18-56, 42-47, 6-43; also: dimer: two chains linked head to head via 20 kDa PEG) {PEG 20 kDa}-GPEHLCGAELVDALYLVCGDRGFYGYGSSSRRAPQTGIVDECCFRSCDLRRLENYCN ?
Result :: 2.6

Query :: Sample MIU-57: B1-PEG20K B^1(H5,Y16,L17)25-C^1-A^1(N18,21) (ligand, disulfide 18-56, 42-47, 6-43) {PEG 20 kDa}-GPEHLCGAELVDALYLVCGDRGFYGYGSSSRRAPQTGIVDECCFRSCDLRRLENYCN — what was its % Insulin Activity (in vitro; assay not stated)?
Result :: 1.2

Query :: Item under review: MIU-35: B^1(H5, H10, Y16, L17)25-C^1-A^1 (H8, N18, N21) (ligand) GPEHLCGAHLVDALYLVCGDRGFYGYGSSSRRAPQTGIVDECCHRSCDLRRLENYCN . Reported % Insulin Activity (in vitro; assay not stated)?
Result :: 3.2
